Exercise: state measured zone of inhibition at 5000 µg/mL for each of the molecules provided.
# Tested on: Shigella flexneri
# Experimental details: Antimicrobial activity against Shigella flexneri RCMB 0100542 assessed as diameter of zone inhibition at 5 mg/ml after 24 hrs by agar well diffusion assay
# Type: functional
# Test context: RCMB 0100542, 24 h, read-out: DIZ
Dear colleague, please return just the value in mm, with no unit written.

Challenge: Form field: reported zone of inhibition at 5000 µg/mL of COc1ccc(C2CC(c3ccc(Oc4ccc5ccccc5n4)cc3)=NN2c2ccccc2)cc1 (stereo not given)
Response given: 23.3

Challenge: Check Clc1ccccc1C1CC(c2ccc(Oc3ccc4ccccc4n3)cc2)=NN1c1ccccc1 (stereo not given) too.
Response given: 0

Challenge: Check COc1ccc(C(=O)/C=C/c2ccc(Oc3ccc4ccccc4n3)cc2)cc1 too.
Response given: 0

Challenge: Check CCOC(=O)c1c(SC)nn(-c2ccc3ccccc3n2)c1N too.
Response given: 0

Challenge: Check Clc1ccccc1C1CC(c2ccc(Oc3ccc4ccccc4n3)cc2)=NN1 (stereo not given) too.
Response given: 23.6

* * *

Exercise: state measured zone of inhibition at 5000 µg/mL for each of the compounds provided.
# Tested on: Klebsiella pneumoniae
# Experimental details: Antimicrobial activity against Klebsiella pneumoniae RCMB 010093 assessed as diameter of zone inhibition at 5 mg/ml after 24 hrs by agar well diffusion assay
# Assay type: functional
# Test context: RCMB 010093, 24 h, read-out: DIZ
Dear colleague, please return just the value in mm, with no unit written.

Challenge: Form field: reported zone of inhibition at 5000 µg/mL of COc1ccc(C(=O)/C=C/c2ccc(Oc3ccc4ccccc4n3)cc2)cc1
Response given: 7.2

Challenge: Check CSc1nn(-c2ccc3ccccc3n2)c(N)c1C#N too.
Response given: 15.3

Challenge: Check N#Cc1c(-c2cccc(Cl)c2)nn(-c2ccc3ccccc3n2)c1N too.
Response given: 0

Challenge: Check Clc1ccc(-c2nn(-c3ccccc3)cc2/C=N/Nc2ccc3ccccc3n2)cc1 too.
Response given: 22.9

Challenge: Check CCOC(=O)c1c(C)nn(-c2ccc3ccccc3n2)c1N too.
Response given: 15.9

Challenge: Check Clc1ccccc1C1CC(c2ccc(Oc3ccc4ccccc4n3)cc2)=NN1c1ccccc1 (stereo unspecified) too.
Response given: 13.3

* * *

# Tested on: Klebsiella pneumoniae
# Experimental details: Antimicrobial activity against Klebsiella pneumoniae RCMB 010093 assessed as diameter of zone inhibition at 5 mg/ml after 24 hrs by agar well diffusion assay
# Format: functional
# Test context: RCMB 010093, 24 h, read-out: DIZ
# binarize zone of inhibition at 5000 µg/mL: threshold 20 mm inclusive, high side MET, low side NOT MET

Challenge: Exam item: decide whether the reported zone of inhibition at 5000 µg/mL for COc1ccc(C2=NN(c3ccccc3)C(c3ccc(Oc4ccc5ccccc5n4)cc3)C2)cc1 (stereo not given) is at least 20 mm.
Response given: NOT MET

Challenge: Check CCOC(=O)c1c(SC)nn(-c2ccc3ccccc3n2)c1N too.
Response given: NOT MET

Challenge: Check COc1ccc(C2CC(c3ccc(Oc4ccc5ccccc5n4)cc3)=NN2)cc1 (stereo not given) too.
Response given: NOT MET

Challenge: Check COc1ccc(C2CC(c3ccc(Oc4ccc5ccccc5n4)cc3)=NN2c2ccccc2)cc1 (stereo not given) too.
Response given: MET

Challenge: Check Clc1ccccc1C1CC(c2ccc(Oc3ccc4ccccc4n3)cc2)=NN1 (stereo not given) too.
Response given: MET

Challenge: Check COc1ccc(C2=NNC(c3ccc(Oc4ccc5ccccc5n4)cc3)C2)cc1 (stereo not given) too.
Response given: NOT MET

Challenge: Check Cc1nn(-c2ccc3ccccc3n2)c(N)c1C#N too.
Response given: NOT MET

Challenge: Check N#Cc1c(-c2ccc(Cl)cc2Cl)nn(-c2ccc3ccccc3n2)c1N too.
Response given: MET

Challenge: Check Cc1ccc(-c2nn(-c3ccccc3)cc2/C=N/Nc2ccc3ccccc3n2)cc1 too.
Response given: NOT MET

Challenge: Check C(=N\Nc1ccc2ccccc2n1)/c1cn(-c2ccccc2)nc1-c1ccccc1 too.
Response given: MET

* * *

# System: Aspergillus clavatus
# Experimental details: Antimicrobial activity against Aspergillus clavatus RCMB 02593 after 72 hrs by macro-tube dilution technique
# Assay type: functional
# Test context: RCMB 02593, 72 h
So basically, if MIC comes in under 8 µg/mL it's Met, and if it's 8 µg/mL or more it's Not met.

Challenge: Is it true that MIC reported for COc1ccc(C2CC(c3ccc(Oc4ccc5ccccc5n4)cc3)=NN2c2ccccc2)cc1 (stereo not given) is less than 8 µg/mL?
Response given: Met

Challenge: Check Clc1ccccc1C1CC(c2ccc(Oc3ccc4ccccc4n3)cc2)=NN1 (stereo not given) too.
Response given: Not met

Challenge: Check C(=N\Nc1ccc2ccccc2n1)/c1cn(-c2ccccc2)nc1-c1ccccc1 too.
Response given: Not met

Challenge: Check CCOC(=O)c1c(C)nn(-c2ccc3ccccc3n2)c1N too.
Response given: Met

Challenge: Check N#Cc1c(-c2ccc(Cl)cc2Cl)nn(-c2ccc3ccccc3n2)c1N too.
Response given: Met

Challenge: Check C[C@@H]1[C@H](O)[C@@H](C)/C=C/C=C/C=C/C=C/C=C/C=C/C=C/[C@H](O[C@@H]2O[C@H](C)[C@@H](O)[C@H](N)[C@@H]2O)C[C@@H]2O[C@](O)(C[C@@H](O)C[C@@H](O)[C@H](O)CC[C@@H](O)C[C@@H](O)CC(=O)O[C@H]1C)C[C@H](O)[C@H]2C(=O)O [AMPHOTERICIN B] too.
Response given: Met

* * *

# System: Candida albicans
# Experimental details: Antimicrobial activity against Candida albicans RCMB 05035 assessed as diameter of zone inhibition at 5 mg/ml after 72 hrs by agar well diffusion assay
# Format: functional
# Test context: RCMB 05035, 72 h, read-out: DIZ
# binarize zone of inhibition at 5000 µg/mL: threshold 20 mm inclusive, high side YES, low side NO

Challenge: Exam item: decide whether the reported zone of inhibition at 5000 µg/mL for N#Cc1c(-c2cccc(Cl)c2)nn(-c2ccc3ccccc3n2)c1N is at least 20 mm.
Response given: NO

Challenge: Check COc1ccc(C2CC(c3ccc(Oc4ccc5ccccc5n4)cc3)=NN2c2ccccc2)cc1 (stereo unspecified) too.
Response given: YES

Challenge: Check Cc1ccc(-c2nn(-c3ccccc3)cc2/C=N/Nc2ccc3ccccc3n2)cc1 too.
Response given: YES

Challenge: Check COc1ccc(C2CC(c3ccc(Oc4ccc5ccccc5n4)cc3)=NN2)cc1 (stereo unspecified) too.
Response given: NO

Challenge: Check CSc1nn(-c2ccc3ccccc3n2)c(N)c1C#N too.
Response given: NO

* * *

# Test system: Candida albicans
# Experimental details: Antimicrobial activity against Candida albicans RCMB 05035 assessed as diameter of zone inhibition at 5 mg/ml after 72 hrs by agar well diffusion assay
# Type: functional
# Test context: RCMB 05035, 72 h, read-out: DIZ
Endpoint: zone of inhibition at 5000 µg/mL

Challenge: Form field: reported zone of inhibition at 5000 µg/mL of Clc1ccccc1C1CC(c2ccc(Oc3ccc4ccccc4n3)cc2)=NN1 (stereo not given)
Response given: 18.5 mm

Challenge: Check CCOC(=O)c1c(SC)nn(-c2ccc3ccccc3n2)c1N too.
Response given: 20.3 mm

Challenge: Check COc1ccc(C2=NNC(c3ccc(Oc4ccc5ccccc5n4)cc3)C2)cc1 (stereo not given) too.
Response given: 11.6 mm

Challenge: Check COc1ccc(C2=NN(c3ccccc3)C(c3ccc(Oc4ccc5ccccc5n4)cc3)C2)cc1 (stereo not given) too.
Response given: 11.6 mm

Challenge: Check C(=N\Nc1ccc2ccccc2n1)/c1cn(-c2ccccc2)nc1-c1ccccc1 too.
Response given: 19.6 mm

Challenge: Check Clc1ccc(-c2nn(-c3ccccc3)cc2/C=N/Nc2ccc3ccccc3n2)cc1 too.
Response given: 24.9 mm

Challenge: Check N#Cc1c(-c2ccc(Cl)cc2Cl)nn(-c2ccc3ccccc3n2)c1N too.
Response given: 24.8 mm

Challenge: Check Clc1ccccc1C1CC(c2ccc(Oc3ccc4ccccc4n3)cc2)=NN1c1ccccc1 (stereo not given) too.
Response given: 9.3 mm

Challenge: Check COc1ccc(C(=O)/C=C/c2ccc(Oc3ccc4ccccc4n3)cc2)cc1 too.
Response given: 0 mm

Challenge: Check CCOC(=O)c1c(C)nn(-c2ccc3ccccc3n2)c1N too.
Response given: 19.8 mm

* * *

Exercise: state measured zone of inhibition at 5000 µg/mL for each of the compounds provided.
# Tested on: Shigella flexneri
# Experimental details: Antimicrobial activity against Shigella flexneri RCMB 0100542 assessed as diameter of zone inhibition at 5 mg/ml after 24 hrs by agar well diffusion assay
# Type: functional
# Test context: RCMB 0100542, 24 h, read-out: DIZ
Please answer using the number first and the unit second.

Challenge: Form field: reported zone of inhibition at 5000 µg/mL of COc1ccc(C2=NNC(c3ccc(Oc4ccc5ccccc5n4)cc3)C2)cc1 (stereo unspecified)
Response given: 15.4 mm

Challenge: Check CSc1nn(-c2ccc3ccccc3n2)c(N)c1C#N too.
Response given: 16.2 mm

Challenge: Check Cc1ccc(-c2nn(-c3ccccc3)cc2/C=N/Nc2ccc3ccccc3n2)cc1 too.
Response given: 18.3 mm

Challenge: Check C(=N\Nc1ccc2ccccc2n1)/c1cn(-c2ccccc2)nc1-c1ccccc1 too.
Response given: 20.1 mm

Challenge: Check CCOC(=O)c1c(C)nn(-c2ccc3ccccc3n2)c1N too.
Response given: 16.8 mm

Challenge: Check N#Cc1c(-c2ccc(Cl)cc2Cl)nn(-c2ccc3ccccc3n2)c1N too.
Response given: 23.2 mm
